Experimental system: CXCR4 (Homo sapiens, UniProt P61073)
Sequence (P61073 whole entry): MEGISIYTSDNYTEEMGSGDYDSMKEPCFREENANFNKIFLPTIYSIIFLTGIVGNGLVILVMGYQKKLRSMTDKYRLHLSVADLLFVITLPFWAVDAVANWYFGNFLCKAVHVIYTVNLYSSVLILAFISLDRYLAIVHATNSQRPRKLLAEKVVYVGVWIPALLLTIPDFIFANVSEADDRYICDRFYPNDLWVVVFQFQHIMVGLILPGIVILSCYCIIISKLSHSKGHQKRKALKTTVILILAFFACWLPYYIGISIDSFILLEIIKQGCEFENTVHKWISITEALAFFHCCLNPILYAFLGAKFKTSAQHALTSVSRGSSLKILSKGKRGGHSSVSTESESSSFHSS
Assay protocol: [125I]-238D4 competition binding on membranes from HEK293T cells transiently expressing CXCR4
Measurement parameters: at highest test concentration of 0.5 μM (footnote a: no significant displacement; b: maximum not reached)
Task for the reader: assign each of the following molecules its reported Displacem. (%) of [125I]-238D4 at 0.5 μM.

# lookup: Displacem. (%) of [125I]-238D4 at 0.5 μM of 237A6: Nanobody (VHH) raised against human CXCR4, SEQ ID NO: 248 (protein, Nanobody, Nanobody constructs or fragments thereof) VHH: EVQLVESGGGLVQAGGSLRLSCAASGSIFSLNAMGWYRQAPGKQRELVAGITSSTSTYYADSVKGRFTISRDNTKNTVYLQMNSLKPEDTAVYYCNVDCPDYYSDYECPLEDRGQGTQVTVSS
0^a %

Any idea what Displacem. (%) of [125I]-238D4 at 0.5 μM was measured for 237D1: Nanobody (VHH) raised against human CXCR4, SEQ ID NO: 249 (protein, Nanobody, Nanobody constructs or fragments thereof) VHH: EVQLVESGGGLAQPGGPLRLTCEASGVIYSVNDMGWYRQAPGKQRELVAVITSGGGTNYVDSVKGRFTISGDNRKKTVYLQMNSLKPEDTAVYYCSIYYSSGISTLRSWGQGTQVTVSS ?
0^a %

For the molecule shown here, 237D2: Nanobody (VHH) raised against human CXCR4, SEQ ID NO: 241 (protein, Nanobody, Nanobody constructs or fragments thereof) VHH: EVQLVESGGGLVQPGGSLRLSCAASGFTFDDYAMSWVRQAPGKGLEWVSAISWNGGSTDYADSVKGRFTISRDNAKNTLYLQMNSLKSEDTAEYYCARDQGPFYSGTYYYTRQYGYRGQGTQVTVSS , give the reported Displacem. (%) of [125I]-238D4 at 0.5 μM.
0^a %

Reported Displacem. (%) of [125I]-238D4 at 0.5 μM for 238C5: Nanobody (VHH) raised against human CXCR4, SEQ ID NO: 243 (protein, Nanobody, Nanobody constructs or fragments thereof) VHH: EVQLMESGGGLVQAGGSLRLACAASGFTFEDYAIGWFRKAPGKEREGVSCISGSDGSTTYADSVKGRFTISTDNAKNTVYLEMNSLKPEDTAVYYCAQQYGVGGRVVCPGPYEYDVWGQGTQVTVSS : what is it?
38 ± 4^b %
